system: Staphylococcus aureus MW2 delta-mecA (mecA-); experiment: normalized GFP fluorescence (growth of mecA- strain) (fraction of control range); higher = more growth of mecA- strain; conditions: compound concentration: 150 uM; cefoxitin: subinhibitory; fluorescent label: GFP
quantity: normalized GFP fluorescence

Sample records with normalized GFP fluorescence:
> print(dat)
                                   compound                     quantity  experimental.value
1                              NNCCc1ccccc1  normalized GFP fluorescence               0.153
2           NC(=O)Cc1cccc(C(=O)c2ccccc2)c1N  normalized GFP fluorescence               0.747
3       CN(C)CC/C=C1/c2ccccc2Sc2ccc(Cl)cc21  normalized GFP fluorescence              0.0199
4         O=P(O)(O)C(O)(Cc1cccnc1)P(=O)(O)O  normalized GFP fluorescence                0.68
5  CNC[C@@H](O)c1ccc(O)c(O)c1 [L-Adrenaline (Epinephrine)]  normalized GFP fluorescence               0.385

Now for a further compound.
Form: compound = Clc1ccc(C(c2ccccc2Cl)C(Cl)Cl)cc1 (stereo unspecified) ; normalized GFP fluorescence = 0.148
